Would you kindly list log10 IC50 for each of these compounds?
- target-desc: hepatic lipase (HL) (Homo sapiens, UniProt P11150)
- Construct: made in house; host or cells: COS cells (conditioned medium, partially purified)
- Sequence (P11150 23-499, species assumed): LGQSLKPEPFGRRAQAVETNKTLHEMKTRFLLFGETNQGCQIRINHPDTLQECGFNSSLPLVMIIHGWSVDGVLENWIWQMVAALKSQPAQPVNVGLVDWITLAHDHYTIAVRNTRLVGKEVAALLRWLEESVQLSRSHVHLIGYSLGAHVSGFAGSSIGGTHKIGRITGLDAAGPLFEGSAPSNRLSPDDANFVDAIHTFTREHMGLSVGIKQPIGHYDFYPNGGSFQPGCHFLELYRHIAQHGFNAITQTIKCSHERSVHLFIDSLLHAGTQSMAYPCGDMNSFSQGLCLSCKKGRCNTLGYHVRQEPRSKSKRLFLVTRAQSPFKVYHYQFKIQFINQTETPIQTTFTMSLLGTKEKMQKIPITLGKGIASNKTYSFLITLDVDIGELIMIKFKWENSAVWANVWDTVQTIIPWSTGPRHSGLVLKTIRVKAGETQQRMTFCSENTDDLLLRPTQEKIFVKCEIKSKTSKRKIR
- procedure-details: Hepatic lipase (HL) enzymatic assay, fluorescent substrate A10070 in DMPG vesicles
- Assay type: biochemical
- recorded-conditions: HL partially purified from conditioned media of COS cells; compound preincubated 30 min at 37° C; read-out: HL IC50
Kindly note that the scale is log10 and the underlying IC50 is in nM.

Hi there! I need log10 IC50 for each item below, if you can.
1. CS(=O)(=O)C(c1nnc(CNS(N)(=O)=O)o1)c1nc2ccc(-c3cnn(CCN4CCOCC4)c3)cc2s1 (stereo not shown) [Example 132]
2. CC(C)NC(=O)c1cccc(-c2ccc3nc(C(c4nnc(CNS(N)(=O)=O)o4)S(C)(=O)=O)sc3c2)c1 (stereo not shown) [Example 259]

OUTPUT:
4.35
1.57

Hi there! I need log10 IC50 for each item below, if you can.
1. COCCNC(=O)c1cccc(-c2ccc3nc(C(c4nnc(CNS(N)(=O)=O)o4)S(=O)(=O)CCC(F)(F)F)sc3c2)c1 (stereo not shown) [Example 199]
2. NS(=O)(=O)NCc1nnc(C(c2nc3ccc(-c4cccc(C(=O)O)c4)cc3s2)S(=O)(=O)CCC(F)(F)F)o1 (stereo not shown) [Example 191]

OUTPUT:
[3.01, 3.43]

Hi there! I need log10 IC50 for each item below, if you can.
1. CS(=O)(=O)NCc1nnc(C(c2nc3ccc(-c4ccc(C(=O)N5CCOCC5)cc4)cc3s2)S(C)(=O)=O)o1 (stereo not shown) [Example 173]
2. CC(C)(C)OC(=O)c1cccc(-c2ccc3nc(C(c4nnc(CC5(C)NC(=O)NC5=O)o4)S(C)(=O)=O)sc3c2)c1 (stereo not shown) [Example 203]

OUTPUT:
[1.76, 0.30]

* * *

- target-desc: Endothelial lipase (EL) (Homo sapiens, UniProt Q9Y5X9)
- Construct: HT-1080 cells that were transformed using RAGE technology (Athersys) to overexpress endogenous EL; endogenous in cells; conditioned medium used
- Sequence (Q9Y5X9 21-500): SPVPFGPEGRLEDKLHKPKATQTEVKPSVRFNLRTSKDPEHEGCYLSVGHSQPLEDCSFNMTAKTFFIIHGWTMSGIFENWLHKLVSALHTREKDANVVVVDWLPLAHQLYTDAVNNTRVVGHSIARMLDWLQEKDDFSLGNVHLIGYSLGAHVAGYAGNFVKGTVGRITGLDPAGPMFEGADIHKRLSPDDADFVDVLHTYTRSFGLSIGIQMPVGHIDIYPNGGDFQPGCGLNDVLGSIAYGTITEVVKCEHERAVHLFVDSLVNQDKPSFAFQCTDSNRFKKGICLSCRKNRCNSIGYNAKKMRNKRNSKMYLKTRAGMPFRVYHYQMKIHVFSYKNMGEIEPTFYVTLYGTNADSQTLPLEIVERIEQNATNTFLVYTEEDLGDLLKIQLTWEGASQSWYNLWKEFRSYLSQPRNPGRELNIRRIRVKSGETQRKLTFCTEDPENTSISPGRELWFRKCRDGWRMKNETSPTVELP
- procedure-details: Endothelial lipase (EL) enzymatic assay, fluorescent substrate A10070 in DMPG vesicles
- Type: biochemical
- recorded-conditions: EL from conditioned media of HT-1080 cells; compound preincubated 30 min at 37° C; read-out: EL IC50
Would you kindly list IC50 for each of these compounds?

Hi there! I need IC50 for each item below, if you can.
1. NS(=O)(=O)NCc1nnc(C(c2nc3ccc(-c4ccc(F)nc4)cc3s2)S(=O)(=O)Cc2ccc(C(F)(F)F)nc2)o1 (stereo not shown) [Example 76]
2. CS(=O)(=O)C(c1nnc(CNS(N)(=O)=O)o1)c1nc2cc(-c3ccccc3)ccc2s1 (stereo not shown) [Example 249]
3. CC1(Cc2nnc(C(c3nc4ccc(-c5ccc(F)nc5)cc4s3)S(=O)(=O)Cc3ccccc3)o2)SC(=O)NC1=O (single isomer, unassigned; isomer a) [Example 1]
4. CN1CCN(C(=O)c2cccc(-c3ccc4nc(C(c5nnc(CNS(N)(=O)=O)o5)S(=O)(=O)Cc5ccccc5)sc4c3)c2)CC1 (stereo not shown) [Example 198]
5. NS(=O)(=O)NCc1nnc(C(c2nc3ccc(-c4ccccc4)cc3s2)S(=O)(=O)Cc2cc(C(F)(F)F)cc(C(F)(F)F)c2)o1 (stereo not shown) [Example 72]
6. CC(C)(C)OC(=O)N1CC(c2nnc(C(c3nc4ccc(-c5ccccc5)cc4s3)S(=O)(=O)Cc3ccccc3)o2)C1 (stereo not shown) [Example 33]
7. NS(=O)(=O)NCc1nnc(C(c2nc3ccc(-c4cc(Cl)cc(Cl)c4)cc3s2)S(=O)(=O)Cc2ccccc2)o1 (stereo not shown) [Example 143]
8. O=C(NCCS(=O)(=O)C(c1nnc(CC2SC(=O)NC2=O)o1)c1nc2c(F)cc(-c3ccccc3)cc2s1)OCc1ccccc1 (stereo not shown) [Example 92]

OUTPUT:
1: 11 nM; 2: 1 nM; 3: < 10 nM; 4: < 10 nM; 5: < 10 nM; 6: 14 nM; 7: < 10 nM; 8: < 10 nM

Hi there! I need IC50 for each item below, if you can.
1. COCCS(=O)(=O)C(c1nnc(CNS(=O)(=O)NC(=O)OC(C)(C)C)o1)c1nc2ccc(-c3cc(F)cc(Cl)c3)cc2s1 (stereo not shown) [Example 153]
2. CS(=O)(=O)C(c1nnc(CNS(N)(=O)=O)o1)c1nc2cc(-c3ccc(C(=O)N4CCOCC4)cc3)ccc2s1 (stereo not shown) [Example 243]

OUTPUT:
19 nM
5 nM

Hi there! I need IC50 for each item below, if you can.
1. NS(=O)(=O)NCc1nnc(C(c2nc3ccc(-c4ccc(F)nc4)cc3s2)S(=O)(=O)Cc2ccccc2)o1 (stereo not shown) [Example 75]
2. CS(=O)(=O)C(c1nnc(CNS(N)(=O)=O)o1)c1nc2ccc(-c3cccc(C(=O)N4CCC(O)CC4)c3)cc2s1 (stereo not shown) [Example 255]
3. NS(=O)(=O)NCc1nnc(C(c2nc3ccc(-c4ccccc4)cc3s2)S(=O)(=O)Cc2ccc(Cl)c(Cl)c2)o1 (stereo not shown) [Example 60]

OUTPUT:
< 10 nM
2 nM
< 10 nM

* * *

- target-desc: Endothelial lipase (EL) (Homo sapiens)
- Construct: HT-1080 cells that were transformed using RAGE technology (Athersys) to overexpress endogenous EL; endogenous in cells; conditioned medium used
- procedure-details: Endothelial lipase (EL) enzymatic assay, fluorescent substrate A10070 in DMPG vesicles
- Type: biochemical
- recorded-conditions: EL from conditioned media of HT-1080 cells; compound preincubated 30 min at 37° C; read-out: EL IC50
Would you kindly list log10(IC50) for each of these compounds?
Kindly note that the scale is log10 and the underlying IC50 is in nM.

A selection of reference data follows.
compound	target-desc	log10(IC50)
CN(C)C(=O)CCc1nnc(C(c2nc3ccc(-c4ccccc4)cc3s2)S(=O)(=O)Cc2ccccc2)o1 (centres unmarked)	Endothelial lipase (EL) (Homo sapiens)	1.76
CC1(Cc2nnc(C(c3nc4ccc(-c5cccc(C(=O)NC6CC6)c5)cc4s3)S(C)(=O)=O)o2)NC(=O)NC1=O (centres unmarked)	Endothelial lipase (EL) (Homo sapiens)	0.70
Cn1cc(-c2cc3sc(C(c4nnc(CNC(=O)OC(C)(C)C)o4)S(=O)(=O)Cc4ccccc4)nc3cc2F)cn1 (centres unmarked)	Endothelial lipase (EL) (Homo sapiens)	1.36
CS(=O)(=O)C(c1nnc(CNS(N)(=O)=O)o1)c1nc2ccc(-c3cccc(C(=O)N4CC(F)(F)C4)c3)cc2s1 (centres unmarked) [Example 251]	Endothelial lipase (EL) (Homo sapiens)	0.95
CC1(Cc2nnc(C(c3nc4ccc(-c5ccc(F)nc5)cc4s3)S(C)(=O)=O)o2)NC(=O)NC1=O (single isomer, unassigned; isomer b) [Example 22]	Endothelial lipase (EL) (Homo sapiens)	1.43

Hi there! I need log10(IC50) for each item below, if you can.
1. CC(c1nnc(CNS(N)(=O)=O)o1)(c1nc2ccc(-c3ccccc3)cc2s1)S(C)(=O)=O (single isomer, unassigned) [Reference 1, Isomer A, reference compound]
2. COCc1ccc(-c2ccc3nc(C(c4nnc(CNS(N)(=O)=O)o4)S(=O)(=O)Cc4ccc(F)cc4)sc3c2)cc1 (centres unmarked)
3. CS(=O)(=O)C(c1nnc(CN)o1)c1nc2ccc(-c3ccccc3)cc2s1 (centres unmarked)

OUTPUT:
3.57
0.00
1.68

* * *

- target-desc: hepatic lipase (HL) (Homo sapiens)
- Construct: made in house; host or cells: COS cells (conditioned medium, partially purified)
- procedure-details: Hepatic lipase (HL) enzymatic assay, fluorescent substrate A10070 in DMPG vesicles
- Type: biochemical
- recorded-conditions: HL partially purified from conditioned media of COS cells; compound preincubated 30 min at 37° C; read-out: HL IC50
experimental-readout: IC50 (nM)
Answers are plain numbers, in nM.

A selection of reference data follows.
compound	IC50 (nM)
CC(C)(C)[C@H](O)C(=O)NCc1nnc(C(c2nc3ccc(-c4ccccc4)cc3s2)S(C)(=O)=O)o1 (stereo partly drawn)	26
CC(O)CNC(=O)Cc1nnc(C(c2nc3ccc(-c4ccc(C(=O)N5CCOCC5)cc4)cc3s2)S(=O)(=O)Cc2ccccc2)o1 (stereo not drawn)	518

# evaluate next
INPUT: Find the measured IC50 of CC(C)(C)OC(=O)NS(=O)(=O)NCc1nnc(C(c2nc3ccc(-c4ccc(C(=O)N5CCOCC5)c(Cl)c4)cc3s2)S(=O)(=O)Cc2ccccc2)o1 (stereo not drawn) with hepatic lipase (HL) (Homo sapiens) as test system.
OUTPUT: 626

* * *

- target-desc: Endothelial lipase (EL) (Homo sapiens, UniProt Q9Y5X9)
- Construct: HT-1080 cells that were transformed using RAGE technology (Athersys) to overexpress endogenous EL; endogenous in cells; conditioned medium used
- procedure-details: Endothelial lipase (EL) enzymatic assay, fluorescent substrate A10070 in DMPG vesicles
- Type: biochemical
- recorded-conditions: EL from conditioned media of HT-1080 cells; compound preincubated 30 min at 37° C; read-out: EL IC50
experimental-readout: pIC50
Give bare numbers, as −log10 of the molar value.

A selection of reference data follows.
compound	pIC50
CC1(Cc2nnc(C(c3nc4ccc(-c5cccc(C(=O)N6CC(F)C6)c5)cc4s3)S(C)(=O)=O)o2)NC(=O)NC1=O (stereo not shown) [Example 206]	7.80
NS(=O)(=O)NCc1nnc(C(c2nc3ccc(-c4ccc(F)nc4)cc3s2)S(=O)(=O)Cc2ccc(OC(F)(F)F)cc2)o1 (stereo not shown) [Example 239]	8.40
CS(=O)(=O)C(c1nnc(CNS(N)(=O)=O)o1)c1nc2cc(-c3cncnc3)ccc2s1 (stereo not shown) [Example 247]	8.40
CC(C)(C)CN1CC(c2nnc(C(c3nc4ccc(-c5ccccc5)cc4s3)S(=O)(=O)Cc3ccccc3)o2)C1 (stereo not shown) [Example 82]	7.59

# evaluate next
INPUT: For the compound COc1cc2nc(C(c3nnc(CNS(=O)(=O)NC(=O)OC(C)(C)C)o3)S(C)(=O)=O)sc2cc1-c1cnn(C)c1 (stereo not shown) [Example 159] , give its measured pIC50 value.
OUTPUT: 7.89

These measurements were taken from patent US20140011799A1.
